# IC50 (μg/ml) against P. aeruginosa values compiled below
System: P. aeruginosa ATCC 27853
methodNotes: Antimicrobial assay, P. aeruginosa
recordedConditions: Tables 22-23
Ends that are not written are not given here.

Ac-RRWWCQ-NH2 [Ac-RRWWCQ-NH2] = 60 to 65 µg/mL

Request: What value of measured IC50 (μg/ml) against P. aeruginosa is listed for Cecropin A (KWKLFKKIEKVGQNIRDGIIKAGPAVAVVGQATQIAK; ends and bridges not checked; UniProt P01507 27-63, looked up) [reference compound] ?
Result: 5 to 6 µg/mL

Request: Can you handle Ac-RRWWCK-NH2 [Ac-RRWWCK-NH2] next?
Result: 150 µg/mL

Request: What about Ac-RRWWCV-NH2 [Ac-RRWWCV-NH2] ?
Result: 33 to 44 µg/mL

Request: Ac-RRWWCI-NH2 [Ac-RRWWCI-NH2] ?
Result: 40 to 70 µg/mL

Request: Then what about the substance Ac-RRWWCR-NH2 [Ac-RRWWCR-NH2] ?
Result: 87 to 130 µg/mL

Request: Moving on to the next substance: Ac-RRWWCN-NH2 [Ac-RRWWCN-NH2]
Result: 120 µg/mL

Request: Also Ac-RRWWCE-NH2 [Ac-RRWWCE-NH2] , if possible.
Result: 149 µg/mL

Request: And the next one, Ac-RRWWCW-NH2 [Ac-RRWWCW-NH2] ?
Result: 60 to 88 µg/mL

====

System: Human red blood cells (RBCs)
methodNotes: Hemolytic activity
Assay type: cell-based
recordedConditions: at 100 μg/ml, Tables 22-23
Kindly return y if reported % hemolysis at 100 μg/ml is no lower than 2%; return n if it is lower.

Would you please look over these solved cases?
Ac-RRWWCL-NH2 [Ac-RRWWCL-NH2] = y
Ac-RRWWCS-NH2 [Ac-RRWWCS-NH2] = n
Ac-RRWWCV-NH2 [Ac-RRWWCV-NH2] = n
Ac-RRWWCW-NH2 [Ac-RRWWCW-NH2] = y
Ac-RRWWCM-NH2 [Ac-RRWWCM-NH2] = y
Ac-RRWWCN-NH2 [Ac-RRWWCN-NH2] = n

Request: Assess whether reported % hemolysis at 100 μg/ml for Ac-RRWWCY-NH2 [Ac-RRWWCY-NH2] sits at 2% or higher.
Result: y

Request: Cool, now Ac-RRWWCA-NH2 [Ac-RRWWCA-NH2]
Result: y

====

Tested on: Human red blood cells (RBCs)
methodNotes: Hemolytic activity
Format: cell-based
recordedConditions: Tables 18-21
Square brackets hold non-standard residues; d marks the D form. Peptide text beside a SMILES is read from it. * marks the point of attachment. Met(O2) = CS(=O)(=O)CC[C@H](N)C(=O)O; Fmoc = O=C(OCC1c2ccccc2-c2ccccc21)*; Orn = NCCC[C@H](N)C(=O)O
Listed here are compounds together with their documented HD50 (concentration necessary to lyse 50% of the cells).
Write the answer as a number in µg/mL, unit excluded.

CC[C@@H](C)[C@@H](NC(=O)[C@@H](CS)NC(=O)[C@H](CCCCN)NC(=O)OCC1c2ccccc2-c2ccccc21)C(=O)N[C@@H](CCCN)C(N)=O [(KFmoc)ci(Orn)-NH2] (Fmoc-K[dC][dI][Orn]-NH2) = 77
NCCCC[C@H](NC(=O)OCC1c2ccccc2-c2ccccc21)C(=O)N[C@@H](Cc1c[nH]c2ccccc12)C(=O)N[C@@H](Cc1ccc(O)cc1)C(=O)N1CCC[C@@H]1C(N)=O [(KFmoc)WYp-NH2] (Fmoc-KWY[dP]-NH2) = 76
CS(=O)(=O)CC[C@H](NC(=O)[C@H](CCCCN)NC(=O)[C@H](Cc1c[nH]c2ccccc12)NC(=O)[C@H](CCCCN)NC(=O)OCC1c2ccccc2-c2ccccc21)C(N)=O [(KFmoc)WK(MetO2)-NH2] (Fmoc-KWK[Met(O2)]-NH2) = 437

Request: Sample NCCCC[C@H](NC(=O)OCC1c2ccccc2-c2ccccc21)C(=O)N[C@@H](Cc1c[nH]c2ccccc12)C(=O)N[C@@H](Cc1ccc(O)cc1)C(=O)N[C@@H](CS)C(N)=O [(KFmoc)WYC-NH2] (Fmoc-KWYC-NH2) — what was its HD50 (concentration necessary to lyse 50% of the cells)?
Result: 267

====

IC50 for assorted substances
targetOrSystem: melittin (Apis mellifera)
Sequence (P01501 44-69 limits assumed): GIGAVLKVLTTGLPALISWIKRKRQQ
methodNotes: cell-based
recordedConditions: read-out: IC50, inhibition of melittin (converted)
Ends that are not written are not given here.
A number alone suffices; assume µM.

Ac-IVILTP-NH2 [Ac-IVILTP-NH2] = 70.4
Ac-IDIWCE-NH2 [Ac-IDIWCE-NH2] = 978
Ac-IVIFFN-NH2 [Ac-IVIFFN-NH2] = 22.7
Ac-IVILLE-NH2 [Ac-IVILLE-NH2] = 10.8
Ac-IVIFFQ-NH2 [Ac-IVIFFQ-NH2] = 32.2

Request: Param item = Ac-IVILTW-NH2 [Ac-IVILTW-NH2] ; retrieve measured IC50.
Result: 14

Request: For Ac-IVILLG-NH2 [Ac-IVILLG-NH2] then?
Result: 25.5

Request: Ac-IDIYCE-NH2 [Ac-IDIYCE-NH2]
Result: 361

Request: For Ac-FQIWCE-NH2 [Ac-FQIWCE-NH2] then?
Result: 10.9

Request: Moving on to the next substance: Ac-IVILLA-NH2 [Ac-IVILLA-NH2]
Result: 22

Request: Can you check NDEIVI-NH2 [NDEIVI-NH2] next?
Result: 444

====

Reported values of HD50 (concentration necessary to lyse 50% of the cells) for individual entries
Test system: Human red blood cells (RBCs)
methodNotes: Hemolytic activity
Format: cell-based
recordedConditions: Tables 18-21
Square brackets hold non-standard residues; d marks the D form. Peptide text beside a SMILES is read from it. * marks the point of attachment. Phe(4-NO2) = N[C@@H](Cc1ccc([N+](=O)[O-])cc1)C(=O)O; Fmoc = O=C(OCC1c2ccccc2-c2ccccc21)*; Thz = O=C(O)[C@@H]1CSCN1; Nva = CCC[C@H](N)C(=O)O; Abu = CC[C@H](N)C(=O)O
Answers without a unit are incomplete; give the number and then its unit.

These solved cases illustrate the format of a correct answer.
NCCCC[C@H](NC(=O)[C@H](Cc1ccc(O)cc1)NC(=O)[C@H](Cc1c[nH]c2ccccc12)NC(=O)[C@H](CCCCN)NC(=O)OCC1c2ccccc2-c2ccccc21)C(N)=O [(KFmoc)WYK-NH2] (Fmoc-KWYK-NH2) = 65 µg/mL
CCC[C@H](NC(=O)[C@H](CCCCN)NC(=O)[C@H](Cc1c[nH]c2ccccc12)NC(=O)[C@H](CCCCN)NC(=O)OCC1c2ccccc2-c2ccccc21)C(N)=O [(KFmoc)WK(Nve)-NH2] (Fmoc-KWK[Nva]-NH2) = 98 µg/mL
CC[C@H](NC(=O)[C@H](NC(=O)[C@@H](CS)NC(=O)[C@H](CCCCN)NC(=O)OCC1c2ccccc2-c2ccccc21)[C@H](C)CC)C(N)=O [(KFmoc)ci(aABA)-NH2] (Fmoc-K[dC][dI][Abu]-NH2) = 29 µg/mL
NCCCC[C@H](NC(=O)OCC1c2ccccc2-c2ccccc21)C(=O)N[C@@H](Cc1c[nH]c2ccccc12)C(=O)N[C@H](Cc1ccccc1)C(=O)N[C@H](Cc1c[nH]c2ccccc12)C(N)=O [(KFmoc)Wfw-NH2] (Fmoc-KW[dF][dW]-NH2) = 36 µg/mL
NCCCC[C@H](NC(=O)OCC1c2ccccc2-c2ccccc21)C(=O)N[C@@H](Cc1c[nH]c2ccccc12)C(=O)N[C@@H](Cc1ccc(O)cc1)C(=O)N1CSC[C@H]1C(N)=O [(KFmoc)WY(Thiopro)-NH2] (Fmoc-KWY[Thz]-NH2) = 488 µg/mL

Request: Please tell me: HD50 (concentration necessary to lyse 50% of the cells) of C[C@@H](NC(=O)[C@H](Cc1ccc(O)cc1)NC(=O)[C@H](Cc1c[nH]c2ccccc12)NC(=O)[C@H](CCCCN)NC(=O)OCC1c2ccccc2-c2ccccc21)C(N)=O [(KFmoc)WYa-NH2] (Fmoc-KWY[dA]-NH2) , system Human red blood cells (RBCs)?
Result: 74 µg/mL

Request: What do you get for NCCCC[C@H](NC(=O)OCC1c2ccccc2-c2ccccc21)C(=O)N[C@@H](Cc1c[nH]c2ccccc12)C(=O)N[C@@H](CCCCN)C(=O)N[C@@H](Cc1ccc([N+](=O)[O-])cc1)C(N)=O [(KFmoc)WK(NO2 F)-NH2] (Fmoc-KWK[Phe(4-NO2)]-NH2) ?
Result: 67 µg/mL

Request: Follow-up item: NCCCC[C@H](NC(=O)OCC1c2ccccc2-c2ccccc21)C(=O)N[C@@H](Cc1c[nH]c2ccccc12)C(=O)N[C@@H](CCCCN)C(=O)N[C@@H](Cc1ccccc1)C(N)=O [(KFmoc)WKF-NH2] (Fmoc-KWKF-NH2)
Result: 105 µg/mL

Request: Another: NCCCC[C@H](NC(=O)OCC1c2ccccc2-c2ccccc21)C(=O)N[C@@H](Cc1c[nH]c2ccccc12)C(=O)N[C@H](Cc1ccccc1)C(=O)N[C@@H](Cc1ccc(O)cc1)C(N)=O [(KFmoc)WfY-NH2] (Fmoc-KW[dF]Y-NH2)
Result: 42 µg/mL
